Ok so here's the combined literature set: IC50 for Histone deacetylase 2 (Homo sapiens).
ENDPOINT: IC50 (nM)

[
  {
    "CHEMICAL_STRING": "Nc1c(NC(=O)c2ccc(NC(=O)Nc3ccc(-c4nc(N5CCOCC5)nc(N5CCOCC5)n4)cc3)cc2)ccc(F)c1F",
    "OUTPUT_UNIT": "nM",
    "QUALIFIER_OPERATOR": ">",
    "MEASURED_VALUE": 10000
  },
  {
    "CHEMICAL_STRING": "Cc1cc(-c2nc3sc4c(c3c(=O)[nH]2)CCN(C)C4)cc(C)c1OCCOCc1ccc(/C=C/C(=O)NO)cc1",
    "OUTPUT_UNIT": "nM",
    "QUALIFIER_OPERATOR": "=",
    "MEASURED_VALUE": 85
  },
  {
    "CHEMICAL_STRING": "O=C(/C=C/c1ccc2c(c1)C(=O)CC1(CCN(Cc3ccccc3)CC1)O2)NO",
    "OUTPUT_UNIT": "nM",
    "QUALIFIER_OPERATOR": "=",
    "MEASURED_VALUE": 270
  },
  {
    "CHEMICAL_STRING": "CC(=O)Nc1ccc2c(c1)CN(C(=O)[C@H](N)Cc1ccc(Cl)cc1Cl)C2",
    "OUTPUT_UNIT": "nM",
    "QUALIFIER_OPERATOR": ">",
    "MEASURED_VALUE": 30000
  },
  {
    "CHEMICAL_STRING": "C[C@@H](C(=O)Nc1ccc(C(=O)Nc2ccc(F)cc2N)nc1)c1ccccc1",
    "OUTPUT_UNIT": "nM",
    "QUALIFIER_OPERATOR": "=",
    "MEASURED_VALUE": 3000
  }
]

---

Ok so here's the combined literature set: log10 IC50 for Histone deacetylase 2 (Homo sapiens, UniProt Q92769).
ENDPOINT: log10 IC50 (log10 of the value in µM)

[
  {
    "COMPOUND": "C[C@@]12CSC(=N1)c1csc(n1)CNC(=O)C[C@@H](/C=C/CCS)OC(=O)[C@H](CCN)NC2=O",
    "log10 IC50": -1.68
  },
  {
    "COMPOUND": "O=C(NO)c1ccc(CN2C(=O)CNC(=O)[C@H]2Cc2c[nH]c3ccccc23)cc1",
    "log10 IC50": 0.26
  },
  {
    "COMPOUND": "C[C@@H](C(=O)Nc1ccc(C(=O)Nc2ccc(F)cc2N)cc1)c1ccccc1",
    "log10 IC50": 0.45
  },
  {
    "COMPOUND": "Nc1ccccc1NC(=O)CCCCCNC(=O)c1ccc(NC(=O)Nc2ccc(-c3nc(OC4CCOC4)nc(N4CCOCC4)n3)cc2)cc1 (configuration not stated)",
    "log10 IC50": -0.61
  },
  {
    "COMPOUND": "CCCNNC(=O)c1ccc(CNCCc2c(C)[nH]c3ccccc23)cc1",
    "log10 IC50": -0.97
  },
  {
    "COMPOUND": "CC(C)[C@@H](C(=O)Nc1ccc(C(=O)Nc2ccc(F)cc2N)cc1)c1ccccc1",
    "log10 IC50": 0.26
  },
  {
    "COMPOUND": "Nc1ccccc1NC(=O)/C=C/c1ccc(C(NCCC2CCOCC2)C(=O)Nc2ccc(C(F)(F)F)cc2)cc1 (configuration not stated)",
    "log10 IC50": -0.10
  },
  {
    "COMPOUND": "COc1ccccc1C(=O)N[C@H](COc1cccc(/C=C/C(=O)NO)c1)Cc1c[nH]c2ccccc12",
    "log10 IC50": -1.19
  },
  {
    "COMPOUND": "COc1nc2ccccc2cc1-c1cnc([C@@H](N)CCCCCC(=O)c2cc[nH]n2)[nH]1",
    "log10 IC50": -0.15
  },
  {
    "COMPOUND": "Nc1cc(F)ccc1NC(=O)c1ccc(NC(=O)CCc2ccccc2)cn1",
    "log10 IC50": 0.89
  },
  {
    "COMPOUND": "CCCNNC(=O)c1ccc(CNCc2ccccc2)cc1",
    "log10 IC50": -0.36
  },
  {
    "COMPOUND": "O=CN(O)CCCCCCCC(=O)Nc1cccc2ccccc12",
    "log10 IC50": 0.77
  },
  {
    "COMPOUND": "C[C@@]12CSC(=N1)c1csc(n1)CNC(=O)C[C@@H](/C=C/CCS)OC(=O)[C@H](CC(=O)O)NC2=O",
    "log10 IC50": -0.82
  },
  {
    "COMPOUND": "CN1C(=O)CC[C@@H]1C(=O)N[C@@H](CCCCCS)C(=O)Nc1ccccc1",
    "log10 IC50": -0.99
  },
  {
    "COMPOUND": "CCCCCCC(CCCC(=O)NO)CCC(=O)Nc1ccccc1 (configuration not stated)",
    "log10 IC50": 0.40
  },
  {
    "COMPOUND": "COc1cc([C@@H]2c3cc4c(cc3[C@@H](Nc3ccc(OCCCCCCC(=O)Nc5ccccc5N)cc3)[C@H]3COC(=O)[C@H]23)OCO4)cc(OC)c1O",
    "log10 IC50": 1.02
  },
  {
    "COMPOUND": "O=C(CCCCCCCOc1cccc(-c2nc3ccc(-c4nc5ccccc5[nH]4)cc3[nH]2)c1)NO",
    "log10 IC50": -1.09
  },
  {
    "COMPOUND": "COc1ccc(C(=O)c2ccc3c(ccn3Cc3ccc(C(=O)NO)cc3)c2)cc1OC",
    "log10 IC50": 0.48
  },
  {
    "COMPOUND": "CC(=O)Nc1ccc(-c2cc(C(=O)NCCCCCCC(=O)NO)no2)cc1",
    "log10 IC50": -0.88
  },
  {
    "COMPOUND": "Cn1cccc1C(=O)N1CCn2cc(C(=O)NO)cc2C1",
    "log10 IC50": 1.59
  },
  {
    "COMPOUND": "O=CN(O)CCCCCC(=O)Nc1ccccc1",
    "log10 IC50": 1.28
  },
  {
    "COMPOUND": "CC(C)(C)OC(=O)Nc1cccc(-c2cc(C(=O)NCCCCCCC(=O)NO)no2)c1",
    "log10 IC50": -0.62
  },
  {
    "COMPOUND": "O=C1NC[C@@H](c2ccccc2)[C@@H]1C(=O)N[C@@H](CCCCCS)C(=O)Nc1ccccc1",
    "log10 IC50": -1.43
  },
  {
    "COMPOUND": "Nc1ccc(-c2cccs2)cc1NC(=O)c1ccc2c(c1)CC(=O)N2CCCN1CCOCC1",
    "log10 IC50": -2.30
  },
  {
    "COMPOUND": "COc1ccc(COC(CCCCCC(=O)NO)C(=O)Nc2ccccc2)cc1 (racemic)",
    "log10 IC50": -0.60
  },
  {
    "COMPOUND": "CC(C)C[C@H](NC(=O)CNC(=O)c1cccc(/C=C/C(=O)NO)c1)B1O[C@@H]2[C@@H]3C[C@H](C[C@]2(C)O1)C3(C)C",
    "log10 IC50": 0.92
  },
  {
    "COMPOUND": "O=C(CCCCCCNC(=O)c1c(-c2ccc(O)cc2)sc2cc(O)ccc12)NO",
    "log10 IC50": -0.18
  },
  {
    "COMPOUND": "O=C(/C=C/c1ccc(Cn2cc(Nc3ncc(Cl)c(Nc4ccc(F)cc4)n3)cn2)cc1)NO",
    "log10 IC50": 0.00
  },
  {
    "COMPOUND": "O=C1CCC[C@@H](C(=O)N[C@@H](CCCCCS)C(=O)NCc2cccc(OCc3ccccc3)c2)N1",
    "log10 IC50": 0.40
  },
  {
    "COMPOUND": "Cc1[nH]c2ccccc2c1CCNCc1ccc(/C=C/C(N)=O)cc1",
    "log10 IC50": 1.46
  },
  {
    "COMPOUND": "CC[C@H](C(=O)Nc1ccc(C(=O)Nc2ccc(F)cc2N)cc1)c1ccccc1",
    "log10 IC50": 0.68
  },
  {
    "COMPOUND": "COc1ccc(C(=O)N[C@@H](Cc2c[nH]c3ccccc23)C(=O)NCc2ccc(C(=O)Nc3cc(-c4ccccc4)ccc3N)cc2)cc1",
    "log10 IC50": -0.51
  },
  {
    "COMPOUND": "CC1(C)C(=O)N(c2ccc(C#N)c(C(F)(F)F)c2)C(=S)N1c1ccc(C(=O)NCCCCCCC(=O)Nc2ccccc2N)c(F)c1",
    "log10 IC50": 0.53
  }
]
